Where these numbers come from: the MegaScale stability set (Tsuboyama et al. 2023)

B1: HEEH_KT_rd6_0790 (parent)
chain: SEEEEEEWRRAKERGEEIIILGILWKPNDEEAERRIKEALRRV

Variants of: B1
assay_procedure: folding stability dG (cDNA display proteolysis); higher = more stable
experimental_conditions: PBS, room temperature
Give folding stability dG for every item shown.
One number for each entry, in kcal/mol.

Examples with their reported folding stability dG follow.
mutant | value_unit | folding stability dG
E6F | kcal/mol | 1.93
G22D | kcal/mol | 1.29
R14V | kcal/mol | 1.76
P27A | kcal/mol | 1.13
I36Q | kcal/mol | 0.909

Hi there! I need folding stability dG for each item below, if you can.
1. A39D
2. I19P
3. W25P
4. W25K
5. E4I

1. 0.764
2. 0.976
3. 0.549
4. 0.664
5. 3.14
